# targetOrTestSystem: alpha2C adrenergic receptors (Homo sapiens, UniProt P18825)
# Sequence (P18825 whole entry): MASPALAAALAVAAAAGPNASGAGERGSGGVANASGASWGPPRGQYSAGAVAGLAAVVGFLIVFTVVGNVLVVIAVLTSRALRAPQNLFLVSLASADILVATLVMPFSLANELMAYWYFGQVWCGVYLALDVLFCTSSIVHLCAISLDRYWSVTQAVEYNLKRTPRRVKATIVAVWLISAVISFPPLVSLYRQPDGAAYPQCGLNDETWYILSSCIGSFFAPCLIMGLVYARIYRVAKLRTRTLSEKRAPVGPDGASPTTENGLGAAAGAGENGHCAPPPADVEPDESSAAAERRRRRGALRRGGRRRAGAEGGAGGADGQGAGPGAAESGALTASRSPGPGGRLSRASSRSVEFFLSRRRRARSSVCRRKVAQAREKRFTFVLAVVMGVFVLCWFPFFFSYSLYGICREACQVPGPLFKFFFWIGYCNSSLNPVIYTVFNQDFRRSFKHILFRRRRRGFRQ
# assayText: Receptor Selection and Amplification Technology (RSAT) assay, alpha2C
# reportedConditions: NA = not active at concentrations less than 10 micromolar, read-out: Alpha 2C EC50
# Source text: The imidazole-2-thione compounds of the invention are agonists of alpha2 adrenergic receptors, particularly they tend to be specific or selective agonists of alpha2B and/or to a lesser extent alpha2C adrenergic receptors, in preference over alpha2A adrenergic receptors. […] Al., 1995, Pharmacol. Toxicol. 76, pp. 308-311 (incorporated herein by reference) and is also described below. […]
measurementLabel: log10(EC50) (log10 of the value in nM)
Values below are the log10 of the recorded EC50, with nM as the unit.

These recorded examples may help you get a feel for the data.
| compound | targetOrTestSystem | log10(EC50) |
| --- | --- | --- |
| S=c1[nH]cc(CC2CCCc3ccccc32)[nH]1 (stereo not shown) | alpha2C adrenergic receptors (Homo sapiens, UniProt P18825) | 2.14 |
| Fc1ccc2c(c1)C(Cc1c[nH]c(=S)[nH]1)CC2 (stereo not shown) | alpha2C adrenergic receptors (Homo sapiens, UniProt P18825) | 1.62 |
| S=c1[nH]cc(C2CCc3ccccc3C2)[nH]1 (stereo not shown) | alpha2C adrenergic receptors (Homo sapiens, UniProt P18825) | 2.63 |
| S=c1[nH]cc(CC2CCC=C2c2cccs2)[nH]1 (stereo not shown) | alpha2C adrenergic receptors (Homo sapiens, UniProt P18825) | 2.79 |
| CC1=C(c2ccc([N+](=O)[O-])cc2)C(Cc2c[nH]c(=S)[nH]2)CC1 (stereo not shown) | alpha2C adrenergic receptors (Homo sapiens, UniProt P18825) | 1.96 |
| Cc1ccc(C)c2c1CC(c1c[nH]c(=S)[nH]1)C2 | alpha2C adrenergic receptors (Homo sapiens, UniProt P18825) | 1.96 |
| Cc1ccc2c(c1)C(Cc1c[nH]c(=S)[nH]1)CC2 (stereo not shown) | alpha2C adrenergic receptors (Homo sapiens, UniProt P18825) | 2.54 |
| S=c1[nH]cc(CC2CCC=C2Cl)[nH]1 (stereo not shown) | alpha2C adrenergic receptors (Homo sapiens, UniProt P18825) | 2.06 |

Record log10(EC50) for all entries; do not skip any.
1. Fc1cccc(C2=CCCC2Cc2c[nH]c(=S)[nH]2)c1 (stereo not shown)
2. S=c1[nH]cc(CC2CC=CC2)[nH]1 [drawing 24]
3. CC=CC1=CCCC1Cc1c[nH]c(=S)[nH]1 (stereo not shown)
4. CC(C)CC1=CCCC1Cc1c[nH]c(=S)[nH]1 (stereo not shown)

## Output
1. 2.28
2. 2.26
3. 3.39
4. 2.82

----------
# targetOrTestSystem: alpha2B adrenergic receptors (Homo sapiens)
# Construct: expressed in transfected cells; host or cells: NIH-3T3
# assayText: Receptor Selection and Amplification Technology (RSAT) assay, alpha2B
# Type: cell-based
# reportedConditions: fraction of maximal effect of standard full agonist brimonidine (UK14304)
# Description: The imidazole-2-thione compounds of the invention are agonists of alpha2 adrenergic receptors, particularly they tend to be specific or selective agonists of alpha2B and/or to a lesser extent alpha2C adrenergic receptors, in preference over alpha2A adrenergic receptors. […] Al., 1995, Pharmacol. Toxicol. 76, pp. 308-311 (incorporated herein by reference) and is also described below. […]
measurementLabel: Alpha 2B intrinsic activity
Numbers only.

These recorded examples may help you get a feel for the data.
| compound | Alpha 2B intrinsic activity |
| --- | --- |
| CCC1=CCCCC1Cc1c[nH]c(=S)[nH]1 (stereo not drawn) | 1.0 |
| N#Cc1ccc(C2=CCCC2Cc2c[nH]c(=S)[nH]2)cc1 (stereo not drawn) | 0.91 |
| O=C1c2ccc(F)cc2CCC1Cc1c[nH]c(=S)[nH]1 (stereo not drawn) | 0.76 |

Record Alpha 2B intrinsic activity for all entries; do not skip any.
1. COc1ccc2c(c1)C(Cc1c[nH]c(=S)[nH]1)CC2 (stereo not drawn)
2. O=C1C2=C(CCCC2)CCC1Cc1c[nH]c(=S)[nH]1 (stereo not drawn)
3. Cc1cccc2c1C(=O)C(Cc1c[nH]c(=S)[nH]1)CC2 (stereo not drawn)

## Output
1: 0.94; 2: 0.83; 3: 0.96

----------
# targetOrTestSystem: alpha2B adrenergic receptors (Homo sapiens)
# Construct: expressed in transfected cells; host or cells: NIH-3T3
# assayText: Receptor Selection and Amplification Technology (RSAT) assay, alpha2B
# Assay type: cell-based
# reportedConditions: fraction of maximal effect of standard full agonist brimonidine (UK14304)
Record form. Attribute: Alpha 2B intrinsic activity. Fill in for each entry.
Answers are plain numbers.

Record Alpha 2B intrinsic activity for all entries; do not skip any.
1. CC1Cc2ccccc2C1Cc1c[nH]c(=S)[nH]1 (stereo not drawn)
2. C[C@@H]1c2ccccc2C[C@H]1c1c[nH]c(=S)[nH]1
3. Fc1cc2c(cc1F)C(Cc1c[nH]c(=S)[nH]1)CC2 (stereo not drawn)
4. S=c1[nH]cc(CC2Cc3ccccc3C2)[nH]1

## Output
1.1
1.03
0.363
0.65

Record Alpha 2B intrinsic activity for all entries; do not skip any.
1. S=c1[nH]cc(CC2CC=CC2)[nH]1 [drawing 24]
2. S=c1[nH]cc(C2CCc3ccccc3CC2)[nH]1

## Output
1: 0.85; 2: 0.82

----------
# targetOrTestSystem: alpha2B adrenergic receptors (Homo sapiens)
# Construct: expressed in transfected cells; host or cells: NIH-3T3
# Sequence (P18089 1-450): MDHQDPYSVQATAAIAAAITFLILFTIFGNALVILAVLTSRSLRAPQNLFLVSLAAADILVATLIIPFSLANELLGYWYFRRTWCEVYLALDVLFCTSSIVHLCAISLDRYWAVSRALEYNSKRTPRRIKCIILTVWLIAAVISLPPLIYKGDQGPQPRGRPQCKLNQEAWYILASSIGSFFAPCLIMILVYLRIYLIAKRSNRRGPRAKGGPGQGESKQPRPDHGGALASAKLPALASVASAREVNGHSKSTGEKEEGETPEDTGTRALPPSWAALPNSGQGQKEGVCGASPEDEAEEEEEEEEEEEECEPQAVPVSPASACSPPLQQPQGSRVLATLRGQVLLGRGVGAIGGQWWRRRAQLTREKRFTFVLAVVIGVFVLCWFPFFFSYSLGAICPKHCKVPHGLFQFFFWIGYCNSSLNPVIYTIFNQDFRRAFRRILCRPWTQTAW
# assayText: Receptor Selection and Amplification Technology (RSAT) assay, alpha2B
# Assay type: cell-based
# reportedConditions: NA = not active at concentrations less than 10 micromolar, read-out: Alpha 2B EC50
# class assignment by measured EC50: low: < 30 nM; mid: ≥ 30 nM and < 200 nM; high: ≥ 200 nM

Example results:
| compound | classAssignment |
| --- | --- |
| CCC1=CCCCC1Cc1c[nH]c(=S)[nH]1 (stereo not shown) | mid |
| CC1=C(c2ccc(F)cc2)C(Cc2c[nH]c(=S)[nH]2)CCC1 (stereo not shown) | low |
| Fc1cccc(C2=CCC[C@@H]2Cc2c[nH]c(=S)[nH]2)c1 | high |
| COc1ccc(C2=CCCC2Cc2c[nH]c(=S)[nH]2)cc1 (stereo not shown) | high |
| S=c1[nH]cc(CC2CCc3c(Cl)cccc32)[nH]1 (stereo not shown) | mid |

Now look at this entry.
## Input Assign a bin to CC1Cc2ccccc2C1Cc1c[nH]c(=S)[nH]1 (stereo not shown)
## Output high

----------
# targetOrTestSystem: alpha2C adrenergic receptors (Homo sapiens, UniProt P18825)
# Construct: expressed in transfected cells; host or cells: NIH-3T3
# assayText: Receptor Selection and Amplification Technology (RSAT) assay, alpha2C
# Type: cell-based
# reportedConditions: fraction of maximal effect of standard full agonist brimonidine (UK14304)
For each record, check the reported Alpha 2C intrinsic activity: if it is below 0.7 write met, else write not met.

| compound | classAssignment |
| --- | --- |
| CCCC1=C(c2ccc(F)cc2)C(Cc2c[nH]c(=S)[nH]2)CC1 (stereo not drawn) | met |
| CCC1=CCCCC1Cc1c[nH]c(=S)[nH]1 (stereo not drawn) | not met |
| Cc1ccc(C2=CCCC2Cc2c[nH]c(=S)[nH]2)cc1 (stereo not drawn) | met |

## Input Given the entry COc1ccc2c(c1)C(Cc1c[nH]c(=S)[nH]1)CC2 (stereo not drawn) , would its reported Alpha 2C intrinsic activity be below 0.7?
## Output not met

## Input Given the entry Cc1cccc2c1C(=O)C(Cc1c[nH]c(=S)[nH]1)CC2 (stereo not drawn) , would its reported Alpha 2C intrinsic activity be below 0.7?
## Output met

## Input Given the entry Cc1cccc2c1CCC2Cc1c[nH]c(=S)[nH]1 (stereo not drawn) , would its reported Alpha 2C intrinsic activity be below 0.7?
## Output met

## Input Given the entry Fc1cc(F)cc(C2=CCCC2Cc2c[nH]c(=S)[nH]2)c1 (stereo not drawn) , would its reported Alpha 2C intrinsic activity be below 0.7?
## Output met

## Input Given the entry `S=c1[nH]cc(C[C@@H]2CCc3ccccc32)[nH]1` , would its reported Alpha 2C intrinsic activity be below 0.7?
## Output met

## Input Given the entry `S=c1[nH]cc(C[C@H]2CCc3ccccc32)[nH]1` , would its reported Alpha 2C intrinsic activity be below 0.7?
## Output met

## Input Given the entry CC1CC(Cc2c[nH]c(=S)[nH]2)c2ccccc21 (stereo not drawn) , would its reported Alpha 2C intrinsic activity be below 0.7?
## Output not met

## Input Given the entry CC1=C(c2ccc(F)cc2)C(Cc2c[nH]c(=S)[nH]2)CC1 (stereo not drawn) , would its reported Alpha 2C intrinsic activity be below 0.7?
## Output not met
